system.name: glutathione-S-transferase (GST) tagged LXRalpha LBD (ligand binding domain) (Homo sapiens, UniProt Q13133)
Sequence (Q13133 209-447 limits assumed): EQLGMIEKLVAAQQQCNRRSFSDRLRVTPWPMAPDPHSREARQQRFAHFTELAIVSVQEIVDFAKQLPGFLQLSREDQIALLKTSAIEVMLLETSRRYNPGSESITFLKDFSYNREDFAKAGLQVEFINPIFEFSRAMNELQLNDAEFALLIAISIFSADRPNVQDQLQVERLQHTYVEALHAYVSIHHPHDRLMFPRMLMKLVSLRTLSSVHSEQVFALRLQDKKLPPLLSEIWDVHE
method: LanthaScreen TR-FRET Liver X Receptor Coactivator Assay, LXR alpha-LBD
run.parameters: potency (Inflection Point) of co-activator recruitment, TR-FRET; read-out: LXR alpha IP
assay.metric: EC50 (µM)
Reply numerically in µM, unit not repeated.

Sample records with EC50:
>  <compound>
CN(C)C(=O)c1ccc(-c2cnc(N3CCN(C(=O)C(O)(C4CCCCC4)C(F)(F)F)CC3)c(C#N)c2)cc1Cl (stereo not drawn)

>  <EC50 / µM>
3.29

$$$$
>  <compound>
CN(CCn1cncn1)C(=O)c1ccc(-c2cnc(N3CCN(C(=O)C(C)(C)c4ccccc4)CC3)c(C#N)c2)cc1Cl

>  <EC50 / µM>
2.42

$$$$

Kindly review the next compound as well.
State its EC50 for this compound: CN(C)C(=O)c1ccc(-c2cnc(N3CCN(S(=O)(=O)c4c(F)cccc4F)CC3)c(C#N)c2)cc1Cl 4.84

All values here come from patent US10239849B2.
